Data provenance: the supplement of paper PMC9112550

test system: Escherichia coli TOP10; test: shrunken log2 fold change of peptide-encoding DNA abundance (4.5 h post-induction vs induction); higher = less antimicrobial activity (less host growth inhibition); conditions: time post-induction: 4.5 h; library: site-saturation at positions 5, 18, 19, 20
measured.endpoint: shrunken log2 fold change
Output: the number by itself.

## Task Tell me the measured shrunken log2 fold change of `RRIRRRPPRLPRPRPRPFCGPRP` , please.
## Result 0.143

## Task Tell me the measured shrunken log2 fold change of `RRIRDRPPRLPRPRPRPEHYPRP` , please.
## Result -0.0548

## Task Tell me the measured shrunken log2 fold change of `RRIRMRPPRLPRPRPRPECRPRP` , please.
## Result 2.38

## Task Tell me the measured shrunken log2 fold change of `RRIRHRPPRLPRPRPRPTFLPRP` , please.
## Result -0.0769

## Task Tell me the measured shrunken log2 fold change of `RRIRVRPPRLPRPRPRPRFDPRP` , please.
## Result 0.048

## Task Tell me the measured shrunken log2 fold change of `RRIRERPPRLPRPRPRPCTSPRP` , please.
## Result -0.0275

## Task Tell me the measured shrunken log2 fold change of `RRIRMRPPRLPRPRPRPCDAPRP` , please.
## Result 0.261

## Task Tell me the measured shrunken log2 fold change of `RRIRERPPRLPRPRPRPENAPRP` , please.
## Result -0.00683

## Task Tell me the measured shrunken log2 fold change of `RRIRQRPPRLPRPRPRPIDQPRP` , please.
## Result -0.0135

## Task Tell me the measured shrunken log2 fold change of `RRIRMRPPRLPRPRPRPLALPRP` , please.
## Result 0.0404

## Task Tell me the measured shrunken log2 fold change of `RRIRWRPPRLPRPRPRPYTRPRP` , please.
## Result -0.774

## Task Tell me the measured shrunken log2 fold change of `RRIRGRPPRLPRPRPRPSRAPRP` , please.
## Result 0.553

## Task Tell me the measured shrunken log2 fold change of `RRIRSRPPRLPRPRPRPDDPPRP` , please.
## Result 0.0348

## Task Tell me the measured shrunken log2 fold change of `RRIRMRPPRLPRPRPRPYINPRP` , please.
## Result -0.574

## Task Tell me the measured shrunken log2 fold change of `RRIRSRPPRLPRPRPRPYYAPRP` , please.
## Result -0.551

## Task Tell me the measured shrunken log2 fold change of `RRIRNRPPRLPRPRPRPNNAPRP` , please.
## Result 0.0167

----------
system: Escherichia coli TOP10; assay: shrunken log2 fold change of peptide-encoding DNA abundance (4.5 h post-induction vs induction); higher = less antimicrobial activity (less host growth inhibition); details: time post-induction: 4.5 h; library: site-saturation at positions 5, 18, 19, 20;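 also: peptides expressed intracellularly from a pBAD plasmid library in pooled LB shake-flask culture, induced with 0.3% L-arabinose, DNA abundance read by NGS, three biological replicates, DESeq2 with apeglm shrinkage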
I would appreciate it if you labelled entries Met when shrunken log2 fold change is -0.07 or higher, otherwise Not met.

## Task Quick check, shrunken log2 fold change >= -0.07? `RRIRLRPPRLPRPRPRPPKFPRP`
## Result Met

## Task Quick check, shrunken log2 fold change >= -0.07? `RRIRMRPPRLPRPRPRPDYWPRP`
## Result Met

## Task Quick check, shrunken log2 fold change >= -0.07? `RRIRVRPPRLPRPRPRPSCKPRP`
## Result Not met

## Task Quick check, shrunken log2 fold change >= -0.07? `RRIRKRPPRLPRPRPRPKHQPRP`
## Result Met

## Task Quick check, shrunken log2 fold change >= -0.07? `RRIRTRPPRLPRPRPRPVCLPRP`
## Result Not met

## Task Quick check, shrunken log2 fold change >= -0.07? `RRIRNRPPRLPRPRPRPQCGPRP`
## Result Not met

## Task Quick check, shrunken log2 fold change >= -0.07? `RRIRFRPPRLPRPRPRPDWCPRP`
## Result Met

## Task Quick check, shrunken log2 fold change >= -0.07? `RRIRMRPPRLPRPRPRPEVDPRP`
## Result Met

## Task Quick check, shrunken log2 fold change >= -0.07? `RRIRDRPPRLPRPRPRPMAMPRP`
## Result Met

## Task Quick check, shrunken log2 fold change >= -0.07? `RRIRDRPPRLPRPRPRPAISPRP`
## Result Met

## Task Quick check, shrunken log2 fold change >= -0.07? `RRIRARPPRLPRPRPRPPNGPRP`
## Result Met

## Task Quick check, shrunken log2 fold change >= -0.07? `RRIRYRPPRLPRPRPRPEDFPRP`
## Result Met

## Task Quick check, shrunken log2 fold change >= -0.07? `RRIRYRPPRLPRPRPRPNRHPRP`
## Result Not met

## Task Quick check, shrunken log2 fold change >= -0.07? `RRIRARPPRLPRPRPRPCQWPRP`
## Result Met

## Task Quick check, shrunken log2 fold change >= -0.07? `RRIRPRPPRLPRPRPRPWTIPRP`
## Result Not met

## Task Quick check, shrunken log2 fold change >= -0.07? `RRIRPRPPRLPRPRPRPLGWPRP`
## Result Met

## Task Quick check, shrunken log2 fold change >= -0.07? `RRIRMRPPRLPRPRPRPEYNPRP`
## Result Met

## Task Quick check, shrunken log2 fold change >= -0.07? `RRIRGRPPRLPRPRPRPICIPRP`
## Result Met

## Task Quick check, shrunken log2 fold change >= -0.07? `RRIRVRPPRLPRPRPRPNTTPRP`
## Result Not met

## Task Quick check, shrunken log2 fold change >= -0.07? `RRIRYRPPRLPRPRPRPYCIPRP`
## Result Not met

## Task Quick check, shrunken log2 fold change >= -0.07? `RRIRIRPPRLPRPRPRPFHSPRP`
## Result Not met

## Task Quick check, shrunken log2 fold change >= -0.07? `RRIRWRPPRLPRPRPRPKRRPRP`
## Result Met

## Task Quick check, shrunken log2 fold change >= -0.07? `RRIRNRPPRLPRPRPRPDKMPRP`
## Result Met

## Task Quick check, shrunken log2 fold change >= -0.07? `RRIRDRPPRLPRPRPRPPIMPRP`
## Result Met

## Task Quick check, shrunken log2 fold change >= -0.07? `RRIRSRPPRLPRPRPRPEEGPRP`
## Result Met

## Task Quick check, shrunken log2 fold change >= -0.07? `RRIRPRPPRLPRPRPRPGPIPRP`
## Result Met

## Task Quick check, shrunken log2 fold change >= -0.07? `RRIRIRPPRLPRPRPRPMDPPRP`
## Result Not met

## Task Quick check, shrunken log2 fold change >= -0.07? `RRIRPRPPRLPRPRPRPYWYPRP`
## Result Not met

## Task Quick check, shrunken log2 fold change >= -0.07? `RRIRSRPPRLPRPRPRPLFQPRP`
## Result Not met

## Task Quick check, shrunken log2 fold change >= -0.07? `RRIRLRPPRLPRPRPRPVLEPRP`
## Result Not met

## Task Quick check, shrunken log2 fold change >= -0.07? `RRIRDRPPRLPRPRPRPLSKPRP`
## Result Met

## Task Quick check, shrunken log2 fold change >= -0.07? `RRIRTRPPRLPRPRPRPVLDPRP`
## Result Met

## Task Quick check, shrunken log2 fold change >= -0.07? `RRIRHRPPRLPRPRPRPAIVPRP`
## Result Not met

## Task Quick check, shrunken log2 fold change >= -0.07? `RRIRMRPPRLPRPRPRPLSVPRP`
## Result Met

## Task Quick check, shrunken log2 fold change >= -0.07? `RRIRIRPPRLPRPRPRPSERPRP`
## Result Not met

## Task Quick check, shrunken log2 fold change >= -0.07? `RRIRPRPPRLPRPRPRPSDVPRP`
## Result Not met

## Task Quick check, shrunken log2 fold change >= -0.07? `RRIRERPPRLPRPRPRPKRYPRP`
## Result Met

## Task Quick check, shrunken log2 fold change >= -0.07? `RRIRGRPPRLPRPRPRPNLCPRP`
## Result Met

## Task Quick check, shrunken log2 fold change >= -0.07? `RRIRYRPPRLPRPRPRPFVYPRP`
## Result Not met

## Task Quick check, shrunken log2 fold change >= -0.07? `RRIRMRPPRLPRPRPRPQWLPRP`
## Result Met

## Task Quick check, shrunken log2 fold change >= -0.07? `RRIRVRPPRLPRPRPRPWAMPRP`
## Result Met

## Task Quick check, shrunken log2 fold change >= -0.07? `RRIRYRPPRLPRPRPRPVMYPRP`
## Result Not met

## Task Quick check, shrunken log2 fold change >= -0.07? `RRIRERPPRLPRPRPRPYWWPRP`
## Result Not met

## Task Quick check, shrunken log2 fold change >= -0.07? `RRIRRRPPRLPRPRPRPCHIPRP`
## Result Not met

## Task Quick check, shrunken log2 fold change >= -0.07? `RRIRDRPPRLPRPRPRPECFPRP`
## Result Met

## Task Quick check, shrunken log2 fold change >= -0.07? `RRIRKRPPRLPRPRPRPASYPRP`
## Result Not met

## Task Quick check, shrunken log2 fold change >= -0.07? `RRIRVRPPRLPRPRPRPMQEPRP`
## Result Met

## Task Quick check, shrunken log2 fold change >= -0.07? `RRIRKRPPRLPRPRPRPMLFPRP`
## Result Met

## Task Quick check, shrunken log2 fold change >= -0.07? `RRIRNRPPRLPRPRPRPVAYPRP`
## Result Met

## Task Quick check, shrunken log2 fold change >= -0.07? `RRIRIRPPRLPRPRPRPRRAPRP`
## Result Met

## Task Quick check, shrunken log2 fold change >= -0.07? `RRIRDRPPRLPRPRPRPEGYPRP`
## Result Met

## Task Quick check, shrunken log2 fold change >= -0.07? `RRIRVRPPRLPRPRPRPVYVPRP`
## Result Met

## Task Quick check, shrunken log2 fold change >= -0.07? `RRIRTRPPRLPRPRPRPPYRPRP`
## Result Not met

## Task Quick check, shrunken log2 fold change >= -0.07? `RRIRYRPPRLPRPRPRPFAAPRP`
## Result Not met

## Task Quick check, shrunken log2 fold change >= -0.07? `RRIRGRPPRLPRPRPRPMVCPRP`
## Result Met

## Task Quick check, shrunken log2 fold change >= -0.07? `RRIRFRPPRLPRPRPRPESKPRP`
## Result Met

## Task Quick check, shrunken log2 fold change >= -0.07? `RRIRPRPPRLPRPRPRPPCAPRP`
## Result Met

## Task Quick check, shrunken log2 fold change >= -0.07? `RRIRARPPRLPRPRPRPCEFPRP`
## Result Met
